Biological target: T1, MPDZ_12, O75970
T1 sequence (O75970 1857-1958, limits assumed, looked up): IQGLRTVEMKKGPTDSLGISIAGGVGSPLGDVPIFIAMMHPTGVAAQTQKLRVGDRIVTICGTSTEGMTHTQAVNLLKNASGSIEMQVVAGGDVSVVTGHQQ
Assay: holdup assay
Design: key: below the threshold = too weak to quantify, mostly under pKd 3.1 to 4
Settings: plain residues with an end cap or a label only (N-terminal biotin on a linker: ado-ado)

binder	pKd
AAVENKVTDL [PLXNB1, O43157]	below the threshold
EDLEDEWEVI [TECPR2, O15040]	below the threshold
ELSATVTTDC [TRIP6, Q15654]	below the threshold
KRPEMTSSSV [MUC3B, MUC3A, Q02505;Q9H195]	below the threshold
IDESKKEWLI [CNTNAP2, Q9UHC6]	below the threshold
TGLWKHETTV [ADGRA3, Q8IWK6]	below the threshold
EDPRVEVTQF [SLC22A9, Q8IVM8]	below the threshold
PPGKHLVTEV [KCNA7, Q96RP8]	3.88
